- Protocol: in vitro
- Format: cell-based
- Condition Summary: human, HepG2 or HepG2.117 cells, ATPlite, 3-days incubation (not marked with *), mean value
Assay Metric: CC50 at 3 days (µM)
Report as a plain number; the unit µM is understood.

Example entries begin here.
[
  {
    "Molecule": "CNC(=O)c1ccc(-n2c(NC(C)C)nc3c(c2=O)C[C@@H](C)N(C(=O)c2ccc(Cl)c(C(F)(F)F)c2)C3)c(C2CC2)c1",
    "Unit Name": "µM",
    "CC50 at 3 days": 25
  },
  {
    "Molecule": "CNc1[nH]nc2cc(-n3c(NC(C)C)nc4c(c3=O)C[C@@H](C)N(C(=O)c3ccc(Cl)c(Cl)c3)C4)ccc12",
    "Unit Name": "µM",
    "CC50 at 3 days": 33.6
  }
]

Q: Any idea what CC50 at 3 days was measured for `Cc1cc(-c2ncc[nH]2)ccc1-n1c(NC(C)C)nc2c(c1=O)C[C@@H](C)N(C(=O)c1ccc(Cl)c(Cl)c1)C2` ?
Result: 25.2

Q: Note, next up: `CNC(=O)c1ccc(-n2c(NC(C)C)nc3c(c2=O)C[C@@H](C)N(C(=O)c2cc4c(Br)c(F)ccc4[nH]2)C3)cc1`
Result: 14.6

Q: Note, next up: CNC(=O)c1ccc(-n2c(N[C@H](C)c3ccc(OC)cc3)nc3c(c2=O)C[C@@H](C)N(C(=O)c2ccc(Cl)c(Cl)c2)C3)cc1 (single isomer, unassigned) [Compound C347a]
Result: 35.1

Q: Note, next up: CNC(=O)c1ccc(-n2c(N[C@H](C)c3ccccc3OC(F)F)nc3c(c2=O)C[C@@H](C)N(C(=O)c2ccc(Cl)c(Cl)c2)C3)cc1 (single isomer, unassigned) [Compound C438a]
Result: 29.2

Q: Note, next up: CNC(=O)c1ccc(-n2c(N[C@@H](C)c3ccc(F)c(OC)c3)nc3c(c2=O)C[C@@H](C)N(C(=O)c2ccc(Cl)c(Cl)c2)C3)cc1 (single isomer, unassigned) [Compound C435b]
Result: 45.8

Q: Note, next up: `CNC(=O)c1ccc(-n2c(NC(C)C)nc3c(c2=O)C[C@@H](C)N(C(=O)c2cc4c(C)cc(F)cc4[nH]2)C3)cc1`
Result: 21.7

Q: Note, next up: CC(C)Nc1nc2c(c(=O)n1-c1ccc(-c3nccn3C)cc1Cl)C[C@@H](C)N(C(=O)c1ccc(Cl)c(Cl)c1)C2 (single isomer, unassigned) [Compound C392a]
Result: 22.7
